system tested: T1, rat VPAC1 receptor (rat, UniProt P30083 31-459)
T1 sequence (looked up): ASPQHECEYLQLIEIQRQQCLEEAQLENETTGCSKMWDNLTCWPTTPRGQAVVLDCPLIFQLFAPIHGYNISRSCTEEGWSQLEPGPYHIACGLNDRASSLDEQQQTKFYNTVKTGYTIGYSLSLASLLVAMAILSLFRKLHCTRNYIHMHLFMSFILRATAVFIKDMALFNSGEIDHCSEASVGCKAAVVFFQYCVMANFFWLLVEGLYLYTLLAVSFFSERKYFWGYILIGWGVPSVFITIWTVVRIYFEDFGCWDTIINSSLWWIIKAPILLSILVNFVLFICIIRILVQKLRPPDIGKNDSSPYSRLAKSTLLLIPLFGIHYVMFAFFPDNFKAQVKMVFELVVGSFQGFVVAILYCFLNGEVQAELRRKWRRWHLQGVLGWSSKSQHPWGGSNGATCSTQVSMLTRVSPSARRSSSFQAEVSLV
assay summary: cell-based or functional assay
Square brackets hold non-standard residues; d marks the D form. Ends that are not written are not given here. * marks the point of attachment. Orn = NCCC[C@H](N)C(=O)O; Hexanoyl = CCCCCC(=O)*; Aib = CC(C)(N)C(=O)O
reported metric: Rat VPAC1 Receptor: DiscoveRx (EC50; nM), cAMP generation
Number only, in nM; omit the unit.

Record summary for HSDAVFTDQYTXLRXQLAAXXYLQSIXXGGPSSGAPPPS (N-terminal hexanoyl (C6); Orn at 12, 21, 27 and 28; Aib at 15 and 20) [VPAC2 receptor peptide agonist P395] : reported Rat VPAC1 Receptor: DiscoveRx (EC50; nM), cAMP generation = 0.35

Record summary for Hexanoyl-HSDAVFTDQYT[Orn]LR[Aib]QVAA[Aib]KYLQSI[Orn]Q[Orn]GGPSSGAPPPS [VPAC2 receptor peptide agonist P363] : reported Rat VPAC1 Receptor: DiscoveRx (EC50; nM), cAMP generation = 1.44

Record summary for Hexanoyl-HSDAVFTDNYT[Orn]SR[Aib]QVAA[Aib]KYLQSI[Orn]N[Orn]GGPSSGAPPPS [VPAC2 receptor peptide agonist P391] : reported Rat VPAC1 Receptor: DiscoveRx (EC50; nM), cAMP generation = 9.09

Record summary for HSDAVFTEQYTXLRXQLAAXXYLQSIXXGGPSSGAPPPS (N-terminal hexanoyl (C6); Tyr(OMe) at 10 and 22; Orn at 12, 21, 27 and 28; Aib at 15 and 20) [VPAC2 receptor peptide agonist P418] : reported Rat VPAC1 Receptor: DiscoveRx (EC50; nM), cAMP generation = 7.76

Record summary for HSDAVFTDQYTXLRXQLAAXXYLQSIXXGGPSSGAPPPS (N-terminal hexanoyl (C6); Tyr(OMe) at 10; Orn at 12, 21, 27 and 28; Aib at 15 and 20) [VPAC2 receptor peptide agonist P394] : reported Rat VPAC1 Receptor: DiscoveRx (EC50; nM), cAMP generation = 0.48
